# MEASURED ON: bovine spleen Cathepsin B (Bos taurus, UniProt P07688)
# Construct: bovine spleen Cathepsin B (SigmaAldrich C6286, ≥10 units/mg protein); purchased SigmaAldrich C6286; host or cells: bovine spleen (tissue-derived)
# EXPERIMENT: Cathepsin B cleavage assay (UHPLC-HRMS Orbitrap analysis)
# Format: biochemical
# TEST CONTEXT: 120 min incubation with Cathepsin B, 37 °C, pH 5.4, 5 μM, triplicate
Starred links: 1 amine or outer side, 2 acyl side, 3 side chain; linkers in the order of their positions; H or OH if unused. Non-standard residues stand in square brackets, D forms with d. Residues, ends and D or L forms follow the SMILES beside them. *: point of attachment. Paclitaxel(2'-OCO-DMEDA) = CC(=O)O[C@H]1C(=O)[C@@]2(C)[C@H]([C@H](OC(=O)c3ccccc3)[C@]3(O)C[C@H](OC(=O)[C@H](OC(=O)N(C)CCN(C)*)[C@@H](NC(=O)c4ccccc4)c4ccccc4)C(C)=C1C3(C)C)[C@]1(OC(C)=O)CO[C@@H]1C[C@@H]2O; Fmoc = O=C(OCC1c2ccccc2-c2ccccc21)*; PABC = O=C(OCc1ccc(N[*:1])cc1)[*:2]
PROPERTY MEASURED: % residual compound, Average % (%)
Give bare numbers, in %.

Tell us which % residual compound, Average % value is on record for CC(=O)O[C@H]1C(=O)[C@@]2(C)[C@H]([C@H](OC(=O)c3ccccc3)[C@]3(O)C[C@H](OC(=O)[C@H](OC(=O)N(C)CCN(C)C(=O)OCc4ccc(NC(=O)CNC(=O)[C@H](CC(C)C)NC(=O)[C@@H]5CCCN5C(=O)CNC(=O)OCC5c6ccccc6-c6ccccc65)cc4)[C@@H](NC(=O)c4ccccc4)c4ccccc4)C(C)=C1C3(C)C)[C@]1(OC(C)=O)CO[C@@H]1C[C@@H]2O [Compound 1, Fmoc-GPLG-PABC-diamine-PTX] (Fmoc-GPLG[PABC]-{Paclitaxel(2'-OCO-DMEDA)}) 65.40
